# Test system: PyIESI-1 RRM domain (Plasmodium yoelii PY17X_0911200 aa 795-956, GST fusion)
# METHOD: RBNS R-value (6-mer enrichment in protein-bound RNA vs input library) (ratio); higher = stronger binding preference
# MEASUREMENT SETUP: protein concentration: 500 nM
In all, about 4,100 sequences were measured (“RBNS R-value (6-mer enrichment in protein-bound RNA vs input library)”: median about 0.96, highest 2% from about 2.4 on). This is one part of a sample in which the highest values are shown more often than they occur.
ASSAY READOUT: RBNS R-value
Answer using only a numeral; do not append any unit.

SEQ TEXT | ASSAY READOUT | ENDPOINT VALUE
GAGGAG | RBNS R-value | 1.09
UGCCUC | RBNS R-value | 1.13
AGUCCU | RBNS R-value | 0.839
CAGUGA | RBNS R-value | 1.58
UGAUUG | RBNS R-value | 4.95
CGUGAG | RBNS R-value | 0.913
GUACUA | RBNS R-value | 0.638
UGCUUU | RBNS R-value | 1.15

Task: What RBNS R-value value was documented for this sequence, AUAAAA ?
Result: 0.843

Task: Item: UGUGAU
Result: 3.62

Task: Item: ACUCUC
Result: 0.906

Task: Item: GAUCAG
Result: 1.23

Task: Item: ACACUC
Result: 1.05

Task: Item: AUACCA
Result: 0.723

Task: Item: UGGAUC
Result: 0.876

* * *

# Tested on: PyIESI-1 RRM domain (Plasmodium yoelii PY17X_0911200 aa 795-956, GST fusion)
# METHOD: RBNS R-value (6-mer enrichment in protein-bound RNA vs input library) (ratio); higher = stronger binding preference
# MEASUREMENT SETUP: protein concentration: 250 nM
In all, about 4,100 sequences were measured (“RBNS R-value (6-mer enrichment in protein-bound RNA vs input library)”: median about 0.96, highest 2% from about 2.4 on). What follows is part of a selection rich in the highest values, with near analogues and random picks from the rest.
ASSAY READOUT: RBNS R-value
Answer using only a numeral; do not append any unit.

The examples below pair each entry with its known result.
SEQ TEXT | ASSAY READOUT | ENDPOINT VALUE
GGAUGC | RBNS R-value | 1.08
GAUGCU | RBNS R-value | 2.48
CUUGAC | RBNS R-value | 1.61
AGGAUU | RBNS R-value | 1.06
CAUUGA | RBNS R-value | 2.25
AGCUCC | RBNS R-value | 0.982
ACCUCG | RBNS R-value | 1.08
GCGAUC | RBNS R-value | 1.09

Now look at this entry.
Task: What RBNS R-value value was documented for this sequence, CGCUUA ?
Result: 0.602

* * *

# Tested on: PyIESI-1 RRM domain (Plasmodium yoelii PY17X_0911200 aa 795-956, GST fusion)
# METHOD: RBNS R-value (6-mer enrichment in protein-bound RNA vs input library) (ratio); higher = stronger binding preference; the methods of the paper give 50 / 100 / 500 nM protein instead
# MEASUREMENT SETUP: protein concentration: 500 nM
Over roughly 4,100 sequences, “RBNS R-value (6-mer enrichment in protein-bound RNA vs input library)” has its median near 0.96; the highest 2% begin near 2.4. The entries come from a sample that favours the highest values as a whole.
Is RBNS R-value at least 1? Then y. If not, n.

Task: Does RBNS R-value meet or surpass 1 for AUUUGG ?
Result: y

Task: Item: CGAUUC
Result: y

Task: Item: AGCCUG
Result: y

Task: Item: AGAUUU
Result: y

Task: Item: UAUCAG
Result: n
